Catalogue of Relative Inhibition of IL-13 induced TARC IC50 readings, one per entry.
- tested.on: T1, hIL-4Rα on cells (human, UniProt P24394 26-825)
- T1 sequence: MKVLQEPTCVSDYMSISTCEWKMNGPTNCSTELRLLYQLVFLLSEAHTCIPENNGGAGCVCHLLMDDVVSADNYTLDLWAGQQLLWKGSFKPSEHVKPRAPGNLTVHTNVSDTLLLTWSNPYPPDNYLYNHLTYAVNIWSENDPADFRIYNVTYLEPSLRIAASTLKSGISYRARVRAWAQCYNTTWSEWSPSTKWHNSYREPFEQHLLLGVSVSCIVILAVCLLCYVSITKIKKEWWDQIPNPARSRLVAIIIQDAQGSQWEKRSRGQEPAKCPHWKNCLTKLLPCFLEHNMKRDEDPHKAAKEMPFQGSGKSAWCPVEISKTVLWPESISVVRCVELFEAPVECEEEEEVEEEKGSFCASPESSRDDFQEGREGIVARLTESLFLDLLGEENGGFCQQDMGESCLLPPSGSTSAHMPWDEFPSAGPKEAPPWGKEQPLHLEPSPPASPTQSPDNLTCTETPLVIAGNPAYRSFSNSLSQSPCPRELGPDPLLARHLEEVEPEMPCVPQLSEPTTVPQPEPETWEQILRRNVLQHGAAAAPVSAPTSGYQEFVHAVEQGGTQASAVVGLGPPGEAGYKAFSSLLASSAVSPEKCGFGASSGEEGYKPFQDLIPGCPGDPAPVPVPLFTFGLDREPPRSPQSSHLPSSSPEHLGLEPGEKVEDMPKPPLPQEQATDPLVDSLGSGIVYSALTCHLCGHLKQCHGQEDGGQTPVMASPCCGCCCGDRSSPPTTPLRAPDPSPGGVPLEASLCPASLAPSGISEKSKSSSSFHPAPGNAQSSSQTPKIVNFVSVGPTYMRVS
- test.method.notes: cell-based or functional assay

Known Relative Inhibition of IL-13 induced TARC IC50 results, listed for orientation:
Construct 43 (mAb482) (antibody, IgG4, V domains shown, VH/VL only) VH: EVQLVESGGGLEQPGGSLRLSCAGSGFTFRDFAMTWVRQAPGKGLEWVSSISGGGGNTYYADSVKGRFTISRDNSKNTLYLQMNSLRAEDTAVYYCAKDRLSIAVRPRYYGLDVWGQGTTVTVSS VL: DIVMTQSPLSLPVTPGEPASISCTSSQSLLYSIGYNYVDWYLQKSGQSPQLLIYLGSKRASGVPDRFSGSGSGTDFTLKISRVEAEDVGFYYCMQSLTSPYTFGQGTKLEIK
2.3 relative to dupilumab
Construct 40 (mAb476) (antibody, IgG4, V domains shown, VH/VL only) VH: EVQLVESGGGLEQPGGSLRLSCAGSGFTFRDFAMTWVRQAPGKGLEWVSSVSGDGGNTYYADSVKGRFTISRDNSKNTLYLQMNSLRAEDTAVYYCAKDRLSKTIRPRYYGLDVWGQGTTVTVSS VL: DIVMTQSPLSLPVTPGEPASISCRSSQSVLYSIGYNYVDWYLQKSGQSPQLLIYLGNKRASGVPDRFSGSGSGTDFTLKISRVEAEDVGFYYCMQAYQSPYVFGQGTKLEIK
4.7 relative to dupilumab
Construct 10 (mAb419) (antibody, IgG4, V domains shown, VH/VL only) VH: EVQLVESGGGLEQPGGSLRLSCAGSGFTFRDFAMTWVRQAPGKGLEWVSSISGDGSNTYYADSVKGRFTISRDNSKNTLYLQMNSLRAEDTAVYYCAKDRLSKTIRPRYYGLDVWGQGTTVTVSS VL: DIVMTQSPLSLPVTPGEPASISCRSSQSLLYSIGYNYVDWYLQKSGQSPQLLIYLGNKRASGVPDRFSGSGSGTDFTLKISRVEAEDVGFYYCMQALGSPYTFGQGTKLEIK
0.856 relative to dupilumab

Request: Could you tell me which Relative Inhibition of IL-13 induced TARC IC50 is on file for Construct 3 (mAb412) (antibody, IgG4, V domains shown, VH/VL only) VH: EVQLVESGGGLEQPGGSLRLSCAGSGFTFRDFAMTWVRQAPGKGLEWVSSISGSGSSTYYADSVKGRFTISRDNSKNTLYLQMNSLRAEDTAVYYCAKDRLSITVRPRYYGLDVWGQGTTVTVSS VL: DIVMTQSPLSLPVTPGEPASISCRSSQSLLYSIGYNYVDWYLQKSGQSPQLLIYLGNKRASGVPDRFSGSGSGTDFTLKISRVEAEDVGFYYCMQALTTPYTFGQGTKLEIK ?
Response: 0.506 relative to dupilumab

Request: Could you tell me which Relative Inhibition of IL-13 induced TARC IC50 is on file for Construct 28 (mAb436) (antibody, IgG4, V domains shown, VH/VL only) VH: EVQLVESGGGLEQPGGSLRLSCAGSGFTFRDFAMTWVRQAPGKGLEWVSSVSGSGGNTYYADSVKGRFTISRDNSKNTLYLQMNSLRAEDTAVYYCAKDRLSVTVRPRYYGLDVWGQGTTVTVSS VL: DIVMTQSPLSLPVTPGEPASISCTSSQSLLYSIGYNYVDWYLQKSGQSPQLLIYLGNKRASGVPDRFSGSGSGTDFTLKISRVEAEDVGFYYCMQSLQTPYTFGQGTKLEIK ?
Response: 1.81 relative to dupilumab

Request: Could you tell me which Relative Inhibition of IL-13 induced TARC IC50 is on file for Construct 6 (mAb415) (antibody, IgG4, V domains shown, VH/VL only) VH: EVQLVESGGGLEQPGGSLRLSCAGSGFTFRDFAMTWVRQAPGKGLEWVSSISGSGDNIYYADSVKGRFTISRDNSKNTLYLQMNSLRAEDTAVYYCAKDRLSVTVRPRYYGLDVWGQGTTVTVSS VL: DIVMTQSPLSLPVTPGEPASISCRSSQGLLYSIGYNYVDWYLQKSGQSPQLLIYLGNKRASGVPDRFSGSGSGTDFTLKISRVEAEDVGFYYCMQSLQTPYTFGQGTKLEIK ?
Response: 1.44 relative to dupilumab

Request: Could you tell me which Relative Inhibition of IL-13 induced TARC IC50 is on file for Construct 39 (mAb473) (antibody, IgG4, V domains shown, VH/VL only) VH: EVQLVESGGGLEQPGGSLRLSCAGSGFTFRDSAMTWVRQAPGKGLEWVSSISGSGDNTYYADSVKGRFTISRDNSKNTLYLQMNSLRAEDTAVYYCAKDRLSITVRPRYYGLDVWGQGTTVTVSS VL: DIVMTQSPLSLPVTPGEPASISCRSSQSLLYSIGKNYVDWYLQKSGQSPQLLIYLGNKRASGVPDRFSGSGSGTDFTLKISRVEAEDVGFYYCMQALGSPYTFGQGTKLEIK ?
Response: 5.23 relative to dupilumab

Request: Could you tell me which Relative Inhibition of IL-13 induced TARC IC50 is on file for Construct 34 (mAb459) (antibody, IgG4, V domains shown, VH/VL only) VH: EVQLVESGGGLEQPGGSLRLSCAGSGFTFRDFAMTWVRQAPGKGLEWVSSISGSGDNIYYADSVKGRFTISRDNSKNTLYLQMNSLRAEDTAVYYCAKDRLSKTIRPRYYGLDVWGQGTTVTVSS VL: DIVMTQSPLSLPVTPGEPASISCRSSQGLLYSIGYNYVDWYLQKSGQSPQLLIYLGNKRASGVPDRFSGSGSGTDFTLKISRVEAEDVGFYYCMQALDTPYTFGQGTKLEIK ?
Response: 1.35 relative to dupilumab

Request: Could you tell me which Relative Inhibition of IL-13 induced TARC IC50 is on file for Construct 18 (mAb426) (antibody, IgG4, V domains shown, VH/VL only) VH: EVQLVESGGGLEQPGGSLRLSCAGSGFTFRDFAMTWVRQAPGKGLEWVSSISGSGDNTYYADSVKGRFTISRDNSKNTLYLQMNSLRAEDTAVYYCAKDRLSKTIRPRYYGLDVWGQGTTVTVSS VL: DIVMTQSPLSLPVTPGEPASISCTSSQSLLYSIGKNYVDWYLQKSGQSPQLLIYLGNKRASGVPDRFSGSGSGTDFTLKISRVEAEDVGFYYCMQSLTSPYTFGQGTKLEIK ?
Response: 0.447 relative to dupilumab

Request: Could you tell me which Relative Inhibition of IL-13 induced TARC IC50 is on file for Construct 32 (mAb446) (antibody, IgG4, V domains shown, VH/VL only) VH: EVQLVESGGGLEQPGGSLRLSCAGSGFTFRDFAMTWVRQAPGKGLEWVSSVSGDGGNTYYADSVKGRFTISRDNSKNTLYLQMNSLRAEDTAVYYCAKDRLSVTVRPRYYGLDVWGQGTTVTVSS VL: DIVMTQSPLSLPVTPGEPASISCRSSQSLLYSNGYNYLDWYLQKSGQSPQLLIYLSSNRASGVPDRFSGSGSGTDFTLKISRVEAEDVGFYYCMQAFQAPYTFGQGTKLEIK ?
Response: 2.4 relative to dupilumab

Ref: patent US20260193366A1
